# experimental.details: chemical genetic growth profiling, strain panel (AID 1159580);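 also: tested at 20 µM; growth read once vehicle control cultures reached saturation at 30 °C; 1 = growth at the plate median or of vehicle wells; lower values mean less growth of the strain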
# conditions: S. cerevisiae deletion strains, growth OD, locus YPL078C, strain atp4, hits give low values
About 2,000 (36%) of roughly 5,500 compounds were called active. Inconclusive results (about 18%) are left out. The list shows a part of the results.
endpoint.label: normalized growth
Lab note: write the figure by itself, no unit.

For the molecule shown here, "Oc1ccc(Cl)c2cccnc12" , give the reported normalized growth.
0.0623

Could you do the same for CC(C)(C)NCC(O)c1ccccc1Cl (stereo not drawn) , please?
1.01

// repeat for "CNC[C@@H](O)c1ccc(O)c(O)c1" and report
1.01

Here is the next molecule: Nc1ncnc2c1ncn2C1C[C@H](O)[C@@H](CO)O1 (stereo partly drawn)
1.01

Ok, now NC(=NCCC[C@H](N)C(=O)O)NC(CCC(=O)O)C(=O)O (stereo partly drawn)
1

Next molecule up: CCCC(C)C1(CC)C(=O)NC(=O)NC1=O (stereo not drawn)
0.999

Another molecule to look at: "Cc1ccc2c(Cl)cc(Cl)c(O)c2n1"
1.01

Item: Nc1ncnc2c1ncn2C1O[C@H](COP(=O)(O)O)[C@@H](O)[C@H]1O (stereo partly drawn)
1.03

Follow-up item: "C[n+]1cccc(C(=O)[O-])c1"
0.963

Can you handle CO[C@H]1/C=C/O[C@@]2(C)Oc3c(C)c(O)c4c(O)c(c(/C=N/N5CCN(C)CC5)c(O)c4c3C2=O)NC(=O)/C(C)=C\C=C\C(C)[C@H](O)[C@@H](C)[C@@H](O)[C@@H](C)[C@@H](OC(C)=O)[C@@H]1C (stereo partly drawn) next?
1.01

Subsequent entry: "Nc1ncn([C@@H]2O[C@H](CO)[C@@H](O)[C@H]2O)c(=O)n1"
0.958

Continue with "CCN(CC)CCNC(=O)c1cc(S(C)(=O)=O)ccc1OC"
0.962

Same question for "Oc1c(Cl)cc(Cl)c2cccnc12" please.
0.0648
